molecular target: monoclonal antibody 4C3 (anti-Bla g 2); test: competition ELISA; settings: chain shown with the change; competitor concentration 0.1 µg/ml; solid phase rBla g 2-N93Q; parent: est. 82; read off a plot
Sequence (chain, as listed by the source, chain 1 of 2): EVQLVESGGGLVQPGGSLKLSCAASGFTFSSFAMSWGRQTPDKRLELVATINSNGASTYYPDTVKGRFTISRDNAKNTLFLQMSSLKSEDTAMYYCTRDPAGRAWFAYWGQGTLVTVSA
Sequence (chain, as listed by the source, chain 2 of 2): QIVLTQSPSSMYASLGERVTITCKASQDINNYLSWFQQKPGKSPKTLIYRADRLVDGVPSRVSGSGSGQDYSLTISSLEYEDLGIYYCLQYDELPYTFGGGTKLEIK
QUANTITY KIND: other: Biotinylated mAb 4C3 bound to Bla g 2 (%)
Answer with a number only, understood to be in %.

BINDER | DATA VALUE
recombinant Bla g 2-N93Q E233R; I199W (protein) VPLYKLVHVFINTQYAGITKIGNQNFLTVFDSTSCNVVVASQECVGGACVCPNLQKYEKLKPKYISDGNVQVKFFDTGSAVGRGIEDSLTISQLTTSQQDIVLADELSQEVCILSADVVVGIAAPGCPNALKGKTVLENFVEENLIAPVFSIHHARFQDGEHFGEIIFGGSDWKYVDGEFTYVPLVGDDSWKFRLDGVKWGDTTVAPAGTQAIIDTSKAIIVGPKAYVNPINRAIGCVVEKTTTRRICKLDCSKIPSLPDVTFVINGRNFNISSQYYIQQNGNLCYSGFQPCGHSDHFFIGDFFVDHYYSEFNWENKTMGFGRSVESV | 100

Exercise: Please give the documented other: Biotinylated mAb 4C3 bound to Bla g 2 (%) of recombinant Bla g 2-N93Q D248A (protein) VPLYKLVHVFINTQYAGITKIGNQNFLTVFDSTSCNVVVASQECVGGACVCPNLQKYEKLKPKYISDGNVQVKFFDTGSAVGRGIEDSLTISQLTTSQQDIVLADELSQEVCILSADVVVGIAAPGCPNALKGKTVLENFVEENLIAPVFSIHHARFQDGEHFGEIIFGGSDWKYVDGEFTYVPLVGDDSWKFRLDGVKIGDTTVAPAGTQAIIDTSKAIIVGPKAYVNPINEAIGCVVEKTTTRRICKLACSKIPSLPDVTFVINGRNFNISSQYYIQQNGNLCYSGFQPCGHSDHFFIGDFFVDHYYSEFNWENKTMGFGRSVESV
Key: 48

Exercise: Please give the documented other: Biotinylated mAb 4C3 bound to Bla g 2 (%) of recombinant Bla g 2-N93Q E233R (protein) VPLYKLVHVFINTQYAGITKIGNQNFLTVFDSTSCNVVVASQECVGGACVCPNLQKYEKLKPKYISDGNVQVKFFDTGSAVGRGIEDSLTISQLTTSQQDIVLADELSQEVCILSADVVVGIAAPGCPNALKGKTVLENFVEENLIAPVFSIHHARFQDGEHFGEIIFGGSDWKYVDGEFTYVPLVGDDSWKFRLDGVKIGDTTVAPAGTQAIIDTSKAIIVGPKAYVNPINRAIGCVVEKTTTRRICKLDCSKIPSLPDVTFVINGRNFNISSQYYIQQNGNLCYSGFQPCGHSDHFFIGDFFVDHYYSEFNWENKTMGFGRSVESV
Key: 72

Origin of values: paper PMC3137622
